test: Protein binding in neutropenic Swiss mouse thigh infection model serum at 20 mg/kg, ip by ultrafiltration; format: ADME, organism-based; parameters: dose 20 mg/kg, route intraperitoneal; settings: read-out: PB (converted)
readout_label: fraction unbound
Format: numeric value only, no unit, no commentary.

Query string: Using the record for CS(=O)(=O)O.NCCSCc1cnccc1SC1=C(C(=O)O)N2C(=O)[C@@H](NC(=O)/C(=N\O)c3nc(N)sc3Cl)[C@H]2SC1 , report its fraction unbound.
Result string: 0.4

====

assay: Apparent volume of distribution with respect to bioavailability in neutropenic Swiss mouse thigh infection model at 20 mg/kg, ip; assay type: ADME, organism-based; settings: in vivo, read-out: Vc/F
readout_label: Vd/F (L/kg)
Value expressed in L/kg; do not type the unit.

Query string: Field request: Vd/F | item: CS(=O)(=O)O.NCCSCc1cnccc1SC1=C(C(=O)O)N2C(=O)[C@@H](NC(=O)/C(=N\O)c3nc(N)sc3Cl)[C@H]2SC1
Result string: 0.3

====

assay: AUC in neutropenic Swiss mouse thigh infection model at 100 mg/kg, ip; assay type: ADME, organism-based; set-up: dose 100 mg/kg, route intraperitoneal; conditions: in vivo
readout_label: AUC (µg·h/mL)
Use µg·h/mL as the unit, but write only the number.

Query string: # AUC lookup, item CS(=O)(=O)O.NCCSCc1cnccc1SC1=C(C(=O)O)N2C(=O)[C@@H](NC(=O)/C(=N\O)c3nc(N)sc3Cl)[C@H]2SC1
Result string: 108

====

experiment: Cmax in neutropenic Swiss mouse thigh infection model at 100 mg/kg, ip; assay type: ADME, organism-based; set-up: dose 100 mg/kg, route intraperitoneal; details: in vivo
readout_label: Cmax (µg/mL)
Value expressed in µg/mL; do not type the unit.

Query string: Need Cmax of CS(=O)(=O)O.NCCSCc1cnccc1SC1=C(C(=O)O)N2C(=O)[C@@H](NC(=O)/C(=N\O)c3nc(N)sc3Cl)[C@H]2SC1 , thanks.
Result string: 133

====

assay: Tmax in neutropenic Swiss mouse thigh infection model at 100 mg/kg, ip; format: ADME, organism-based; design: dose 100 mg/kg, route intraperitoneal; settings: in vivo
readout_label: Tmax (min)
Number in min, nothing else.

Query string: Report Tmax for CS(=O)(=O)O.NCCSCc1cnccc1SC1=C(C(=O)O)N2C(=O)[C@@H](NC(=O)/C(=N\O)c3nc(N)sc3Cl)[C@H]2SC1 please.
Result string: 15.6

====

test: Tmax in neutropenic Swiss mouse thigh infection model at 20 mg/kg, ip; assay type: ADME, organism-based; parameters: dose 20 mg/kg, route intraperitoneal; details: in vivo
readout_label: Tmax (min)
Lab book: enter the figure in min, no units written.

Query string: Item CS(=O)(=O)O.NCCSCc1cnccc1SC1=C(C(=O)O)N2C(=O)[C@@H](NC(=O)/C(=N\O)c3nc(N)sc3Cl)[C@H]2SC1 has what recorded Tmax?
Result string: 5.4

====

experiment: Clearance with respect to bioavailability in neutropenic Swiss mouse thigh infection model at 20 mg/kg, ip; type: ADME, organism-based; settings: in vivo
readout_label: CL/F (mL/min/kg)
Express your answer in mL/min/kg, writing the number without its unit.

Query string: Would you kindly share the measured CL/F for CS(=O)(=O)O.NCCSCc1cnccc1SC1=C(C(=O)O)N2C(=O)[C@@H](NC(=O)/C(=N\O)c3nc(N)sc3Cl)[C@H]2SC1 ?
Result string: 20

====

assay: Apparent volume of distribution with respect to bioavailability in neutropenic Swiss mouse thigh infection model at 100 mg/kg, ip; assay type: ADME, organism-based; details: in vivo, read-out: Vc/F
readout_label: Vd/F (L/kg)
Numbers only; they are read as L/kg.

Query string: Quick check: Vd/F of CS(=O)(=O)O.NCCSCc1cnccc1SC1=C(C(=O)O)N2C(=O)[C@@H](NC(=O)/C(=N\O)c3nc(N)sc3Cl)[C@H]2SC1 ?
Result string: 0.44

====

test: Protein binding in neutropenic Swiss mouse thigh infection model serum at 100 mg/kg, ip by ultrafiltration; format: ADME, organism-based; parameters: dose 100 mg/kg, route intraperitoneal; conditions: read-out: PB (converted)
readout_label: fraction unbound
Provide a numeric answer; units are not to be included.

Query string: Sample CS(=O)(=O)O.NCCSCc1cnccc1SC1=C(C(=O)O)N2C(=O)[C@@H](NC(=O)/C(=N\O)c3nc(N)sc3Cl)[C@H]2SC1 — what was its fraction unbound?
Result string: 0.4

====

experiment: Clearance with respect to bioavailability in neutropenic Swiss mouse thigh infection model at 100 mg/kg, ip; format: ADME, organism-based; conditions: in vivo
readout_label: CL/F (mL/min/kg)
Expressed in mL/min/kg, but write only the number.

Query string: What value of CL/F has been reported for the following compound? CS(=O)(=O)O.NCCSCc1cnccc1SC1=C(C(=O)O)N2C(=O)[C@@H](NC(=O)/C(=N\O)c3nc(N)sc3Cl)[C@H]2SC1
Result string: 15

====

assay: Half life in neutropenic Swiss mouse thigh infection model at 20 mg/kg, ip; format: ADME, organism-based; set-up: dose 20 mg/kg, route intraperitoneal; details: in vivo
readout_label: half-life (min)
Report the figure in min without appending any unit label.

Query string: What does the record list as half-life for CS(=O)(=O)O.NCCSCc1cnccc1SC1=C(C(=O)O)N2C(=O)[C@@H](NC(=O)/C(=N\O)c3nc(N)sc3Cl)[C@H]2SC1 ?
Result string: 10.2
